- Protocol: Solubility evaluation: weight loss of fortified dentin in butyric acid
- Parameters: species or system human
- Recorded Conditions: 0.1 M butyric acid pH 4.4, 24 h, 37 C; mean ± SD
Marks after values point to notes of the source that are not given here.
Assay Endpoint: Solubility (weight loss)

[Q] Given O=C1O[C@H]([C@@H](O)CO)C([O-])=C1OP(=O)([O-])[O-].O=C1O[C@H]([C@@H](O)CO)C([O-])=C1OP(=O)([O-])[O-].[Ba+2].[Ba+2].[Ba+2] , state its recorded Solubility (weight loss).
[A] 19.03 ± 2.99 ^a %

----------
color intensity reference
- Protocol: SEM-EDS color dot map, intensity of the metal in dentin
- Set-up: species or system human
- Recorded Conditions: pilot study; mean and standard deviation
Could you respond with only the numeric value?

O=C1O[C@H]([C@@H](O)CO)C([O-])=C1OP(=O)([O-])[O-].O=C1O[C@H]([C@@H](O)CO)C([O-])=C1OP(=O)([O-])[O-].[Zn+2].[Zn+2].[Zn+2] [Zn]: 7.35
O=C1O[C@H]([C@@H](O)CO)C([O-])=C1OP(=O)([O-])[O-].O=C1O[C@H]([C@@H](O)CO)C([O-])=C1OP(=O)([O-])[O-].[Mn+2].[Mn+2].[Mn+2] [Mn]: 6.1
O=C1O[C@H]([C@@H](O)CO)C([O-])=C1OP(=O)([O-])[O-].O=C1O[C@H]([C@@H](O)CO)C([O-])=C1OP(=O)([O-])[O-].[Sr+2].[Sr+2].[Sr+2] [Sr]: 6.2
O=C1O[C@H]([C@@H](O)CO)C([O-])=C1OP(=O)([O-])[O-].O=C1O[C@H]([C@@H](O)CO)C([O-])=C1OP(=O)([O-])[O-].[Mg+2].[Mg+2].[Mg+2] [Mg]: 9.9

Now for the compound whose color intensity we want.
[Q] Given O=C1O[C@H]([C@@H](O)CO)C([O-])=C1OP(=O)([O-])[O-].O=C1O[C@H]([C@@H](O)CO)C([O-])=C1OP(=O)([O-])[O-].[Ba+2].[Ba+2].[Ba+2] [Ba] , state its recorded color intensity.
[A] 5.55
